# experimentalSystem: whole MMP-2 (Homo sapiens, UniProt P08253)
# Construct: purchased R&D System, London, UK
# Sequence (P08253 110-660): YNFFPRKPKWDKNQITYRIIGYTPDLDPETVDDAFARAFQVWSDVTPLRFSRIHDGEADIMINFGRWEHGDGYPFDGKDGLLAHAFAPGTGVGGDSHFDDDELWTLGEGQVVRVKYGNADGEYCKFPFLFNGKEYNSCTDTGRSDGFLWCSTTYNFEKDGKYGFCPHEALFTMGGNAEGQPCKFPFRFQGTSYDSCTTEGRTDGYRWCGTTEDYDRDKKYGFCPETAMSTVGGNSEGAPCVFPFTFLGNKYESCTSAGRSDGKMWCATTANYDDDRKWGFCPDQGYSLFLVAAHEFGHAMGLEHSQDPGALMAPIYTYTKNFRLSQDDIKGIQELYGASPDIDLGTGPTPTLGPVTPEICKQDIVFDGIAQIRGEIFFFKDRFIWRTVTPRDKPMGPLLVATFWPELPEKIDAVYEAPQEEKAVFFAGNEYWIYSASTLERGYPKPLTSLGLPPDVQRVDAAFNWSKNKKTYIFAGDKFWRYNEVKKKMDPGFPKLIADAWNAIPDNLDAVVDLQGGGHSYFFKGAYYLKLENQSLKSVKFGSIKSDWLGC
# experimentalDetails: MMP-2 proteolysis of fluorogenic peptide, modulation by α-DG C-term peptide
# Format: biochemical
# experimentalContext: whole MMP-2, fluorogenic substrate, peptide 0-4 μM, 30 min preincubation at 37°C, pH 7.3; global fit Eqs 1-3; read-out: Ka (peptide dissociation constant to the free enzyme, first, high affinity non-competitive site)
No end group written: not given here.
testReadout: pKd
Answers are plain numbers, as −log10 of the molar value.

Task item: Consider the sequence VGDPALVLNDIHKKIALVKKLAFAFGDRNCSTITLQNIT [α-DG (613–651) peptide] and give its measured pKd.
Reply: 7.46
